Observed IC50 for Syk (Homo sapiens (Human), UniProt P43405), reported per entry below.

Solved entries:
COCCOCCOCCNC(=O)c1cc(Nc2cc(Oc3ccc(NC(=O)Nc4cc(C(C)(C)C)nn4-c4ccc(C)cc4)c4ccccc34)ccn2)cc(OC)c1 [Example 4]    46 nM
[2H]c1c([2H])c(C([2H])([2H])[2H])c([2H])c([2H])c1-n1nc(C(C)(C)C)cc1NC(=O)Nc1ccc(Oc2ccnc(Nc3cc(C#C)cc(C(=O)NCCOCCOCCOC)c3)n2)c2ccccc12 [Example 6]    96 nM

Let us examine a further case.
In: Param readout = IC50; param system = Syk (Homo sapiens (Human), UniProt P43405); param query = COCCOCCOCCNC(=O)c1cc(Nc2cc(Oc3ccc(NC(=O)Nc4cc(C(C)(C)C)nn4-c4ccc(N(C)C)cc4)c4ccccc34)ccn2)cc(OC)c1 [Example 10] ; response: value
Out: 48 nM
